// provenance: PubChem BioAssay (NCI)

system: HL-60(TB) leukemia; test: NCI-60 one-dose screen, 48 h; conditions: 10 µM unless noted
About 83,000 compounds went through this panel and 20% of them were active in at least one assay; those are over-represented in the sample as a whole. Calls of active or inactive are those of the source. Rule for the calls: active = growth percent below 10; inactive = the rest.
Select the matching outcome among active, inactive

Here's what some known entries look like.
- molecule: "O=C(O)c1ccc(-n2cc(/C=N/Nc3ccc(F)cc3)c(-c3cccc(C(F)(F)F)c3)n2)cc1"
  class name: "inactive"
- molecule: "CC(=O)Nc1ccc(OC(=O)c2ccccc2O)cc1"
  class name: "inactive"
- molecule: "Cc1ccc(C(=O)N(CCCN)[C@@H](c2nc3cc(Cl)ccc3c(=O)n2Cc2ccccc2)C(C)C)cc1"
  class name: "active"
- molecule: "Cc1ccc(-c2nc([P+](c3ccccc3)(c3ccccc3)c3ccccc3)c(Nc3ccccc3)o2)cc1"
  class name: "active"
- molecule: "COc1cc(/C=C2\\C(=O)N(CCCOc3cc(O)c4c(=O)cc(-c5ccccc5)oc4c3)c3ccccc32)cc(OC)c1O"
  class name: "inactive"

Task item: Recorded test outcome, item `COc1cc(/C=C/C(=O)c2c(C)nc3ccccc3c2C)ccc1OCCCOc1cc2c(cc1OC)C(=O)N1CCC[C@H]1C=N2`
Reply: active

Task item: For `NC(=O)C1(Nc2ccc(Br)cc2)CCCC1` , which call appears in the assay record?
Reply: inactive

Task item: Recorded call for O=[N+]([O-])c1ccc(C2CC(c3ccccc3)=Nc3ccccc3S2)cc1 (configuration not stated) ?
Reply: inactive

Task item: How did this test come out for `CC(C)NC(=O)OCc1c(COC(=O)NC(C)C)c(-c2ccc(Cl)cc2)n2c1CCC2` ?
Reply: inactive

Task item: Record request — test call for `CCN(CC)CCSc1c2ccc(Cl)cc2nc2ccc(OC)cc12`
Reply: inactive

Task item: Per the records of this test, what outcome belongs to `CNS(=O)(=O)Oc1ccc(-c2sc3cc(OS(=O)(=O)NC)ccc3c2C(=O)c2ccc(OCCN3CCCCC3)cc2)cc1` ?
Reply: inactive

Task item: Please share the test call associated with COc1ccc2nc3cc(Cl)ccc3c(NCCNCC(C)O)c2c1 (configuration not stated) .
Reply: inactive

====

tested on: A498 renal; experiment: NCI-60 one-dose screen, 48 h (100 = growth as untreated, 0 = no growth, -100 = all killed); details: 10 µM unless noted
This is part of a sample that, as a whole, favours compounds with a hit. Of some 83,000 tested, about 20% had one in any assay.
# Lookup of reported growth keyed by entry
Answer in %, number only, no unit symbol.

- compound: "CCC[CH2][Sn]1([CH2]CCC)[O]C(=O)c2cccc([N+](=O)[O-])c2C(=O)[O]1"
  growth / %: -94.5
- compound: "[O]=[Sn]([CH]1CCCCC1)[CH]1CCCCC1"
  growth / %: -98
- compound: "Oc1c(Br)cc(Br)cc1Br.[Cu+2]"
  growth / %: 106
- compound: "Nc1nc(N)c(-c2ccc(Cl)c(Cl)c2)c(/C=C/c2ccc(S(=O)(=O)F)cc2)n1"
  growth / %: 87.7

Continue with the next compound.
Task item: Sample Fc1ccc(C2=NN(c3ccccc3)C(c3sc(N(CCCl)CCCl)nc3Cl)C2)cc1 (stereo unspecified) — what was its growth?
Reply: 92.4

====

system: HL-60(TB) leukemia; test: NCI-60 one-dose screen, 48 h; conditions: 10 µM unless noted
The panel holds about 83,000 compounds, 20% with a hit somewhere; the sample as a whole holds those more often. Activity calls are given as the source filed them. The calls were made as follows: active = growth percent below 10; inactive = the rest.
Write down one outcome, taken from active, inactive

The following compounds have reported results that may help.
- compound: "C/C(=N\\O)c1ccccn1"
  system name: "HL-60(TB) leukemia"
  class name: "inactive"
- compound: "COc1ccc(C2[C@@H](c3ccccc3)C(=O)N2c2cc(OC)c(OC)c(OC)c2)cc1F (stereo partly specified)"
  system name: "HL-60(TB) leukemia"
  class name: "active"
- compound: "COc1cc(Br)c(OC)cc1Br"
  system name: "HL-60(TB) leukemia"
  class name: "inactive"
- compound: "COc1ccc(Nc2ncc(Br)c(NCCCNC(=O)c3cccs3)n2)cc1"
  system name: "HL-60(TB) leukemia"
  class name: "inactive"
- compound: "O=C(Nc1ccc(Br)cc1F)c1cc(I)ccc1O"
  system name: "HL-60(TB) leukemia"
  class name: "active"
- compound: "COc1ccc(-c2nn(-c3cccc(Cl)c3)cc2-c2cc(-c3ccccc3)[nH]c(=O)c2C#N)cc1"
  system name: "HL-60(TB) leukemia"
  class name: "inactive"

Task item: Please let me know the test result on file for `Nc1nc(Nc2ccccc2SSc2ccccc2Nc2nc(N)nc(C(Cl)(Cl)Cl)n2)nc(C(Cl)(Cl)Cl)n1` .
Reply: inactive

Task item: Just curious, what result did `C/C(=C\CCc1ccsc1)CC/C=C(\C)CCCN1CCN(CCO)CC1` get here?
Reply: active

Task item: Each compound tested received a call. Report the one for CCC(=O)NC(O)C(Cl)(Cl)C(C)Cl (stereo unspecified) .
Reply: inactive

Task item: What outcome does the record of this test show for `n1nc(-c2nonc2-c2nn[nH]n2)n[nH]1` ?
Reply: inactive

Task item: Hi team, can someone confirm the assay call for `COc1ccc2[nH]cc(-c3nc(-c4c[nH]c5c(Cl)nccc45)cs3)c2c1` ?
Reply: inactive
